PROTOCOL_TEXT: gradient 5% acetonitrile 3 min, to 50% in 2 min, to 85% in 15 min, held 3 min, 100 µL/min
EXPERIMENTAL_SETUP: column: Zorbax Extend-C18 2.1 x 50 mm; eluents: water / acetonitrile, 0.1% formic acid
READOUT: RP-LC retention time (s)
Dear colleague, please return just the value in s, with no unit written.

Endpoint output: RP-LC retention time of C/C=C1/[C@H]2C=C(C)C[C@]1(N)c1ccc(=O)[nH]c1C2 . Value?
589

O=C(CSc1nnc2c3cc(-c4ccccc4)nn3ccn12)Nc1ccccc1Br , same question.
908

Also need Cc1ccc(-c2nc3ccc(Cl)cn3c2Nc2ccccc2C)cc1 , thanks.
904

Field entry: Cc1noc(CNS(=O)(=O)c2ccc(OC(F)(F)F)cc2)n1
818

Moving on to Cc1ccc(Cl)cc1N1CCN(C(=O)c2[nH]c(C)c(S(=O)(=O)N3CCCC3)c2C)CC1
1060

Now give it for CO[C@H]1C(=O)N(C2CCN(S(=O)(=O)c3ccc4c(c3)CCC4)CC2)[C@H]1c1ccncc1 too.
704

And the next one, CCOC(=O)c1ccc(Nc2ncnc3c2cnn3C)cc1 ?
817

Further, for Cc1c2cnn(CC(=O)NCc3ccco3)c(=O)c2c(C)n1Cc1cccc(Cl)c1 ?
862

----------
PROTOCOL_TEXT: gradient 5% acetonitrile 3 min, to 50% in 2 min, to 85% in 15 min, held 3 min, 100 µL/min
EXPERIMENTAL_SETUP: column: Zorbax Extend-C18 2.1 x 50 mm; eluents: water / acetonitrile, 0.1% formic acid
READOUT: RP-LC retention time (s)
Response body: numeric value in s, unit text excluded.

Record request: RP-LC retention time value, item CC1CS(=O)(=O)N(c2ccc(C(=O)NCCc3c[nH]c4ccccc34)cc2)C1=O (stereo not drawn)
780

Field entry: CCCN1C(=O)COc2cc(-c3noc(C(=O)NCC(C)c4ccccc4)n3)ccc21 (stereo not drawn)
793

Would you kindly repeat that for CCOC(=O)C1CCN(C(=O)c2ccc3ccnc(N4CCN(c5ccc(F)cc5)CC4)c3c2)CC1 ?
814

----------
What RP-LC retention time was measured for each of the following?
PROTOCOL_TEXT: gradient 5% acetonitrile 3 min, to 50% in 2 min, to 85% in 15 min, held 3 min, 100 µL/min
EXPERIMENTAL_SETUP: column: Zorbax Extend-C18 2.1 x 50 mm; eluents: water / acetonitrile, 0.1% formic acid
Reply with just the number (in s).

What does the record list as RP-LC retention time for CC(C)c1nnc(-c2cccnc2N2CCN(C(=O)c3ccoc3)CC2)o1 ?
725

Also need CCn1cc(-c2nc(C)c(C(=O)NCc3ccc(C)o3)s2)c2cccnc21 , thanks.
912

Same again, this time with O=C(CN1CCCC1=O)NCc1ccc(F)c(Cl)c1
667

Let us now turn to CCc1ccc(-c2noc(Cn3c(=O)n(Cc4ccc(OC)cc4)c(=O)c4sccc43)n2)cc1
1190

Please give the result for CCN1C(=O)C2(CCN(S(=O)(=O)c3ccc4c(c3)CCCC4)CC2)c2ccccc21 too.
1220

Now the same for COc1ccc(C2Cn3nnc(-c4nc(-c5ccc(F)c(F)c5)no4)c3CO2)cc1 (stereo not drawn)
1180

Could you do the same for Cc1cc(S(=O)(=O)N(C)C2CCc3nn(CC4CC4)c(=O)n3CC2)ccc1Cl (stereo not drawn) , please?
827

Consider next the compound Cc1nnc(-c2ccc3ccn(CC(=O)N4CCN(Cc5ccc6c(c5)OCO6)CC4)c3c2)o1 in the same way.
651

----------
PROTOCOL_TEXT: gradient 5% acetonitrile 3 min, to 50% in 2 min, to 85% in 15 min, held 3 min, 100 µL/min
EXPERIMENTAL_SETUP: column: Zorbax Extend-C18 2.1 x 50 mm; eluents: water / acetonitrile, 0.1% formic acid
Kindly state RP-LC retention time for each of the entries shown.
The answer is to be given in s; state only the numeric part.

Give its RP-LC retention time value. Item: COc1cc(Cl)c(NS(=O)(=O)c2c(C)sc(C)c2-c2n[nH]c(C)c2C)c(OC)c1
980

What would you report for COc1ccc(OCc2nnc3sc(-c4cc5ccccc5o4)nn23)cc1 ?
984

What do you get for COc1cccc(CNC(=O)C2(C)CCCN(C(=O)Nc3cc(C)cc(C)c3)C2)c1 (stereo not drawn) ?
961

And the next one, c1ccn(CCc2ccncc2)c1 ?
616

# iterate: Cc1cnn(CCC(=O)N2CCCCCCNC(=O)[C@@H]3CCCC[C@@H]32)c1
728

Please do the same for CCS(=O)(=O)N1CC(=O)N(c2ccc(C(C)C)cc2)C(C)(C(=O)NCc2ccc(F)cc2)C1 (stereo not drawn) as well.
872

Same thing, different compound: CCc1cccc(C)c1Nc1c(-c2cc(Br)ccc2O)nc2nc(C)cc(C)n12
1040

CCN1CCCC1CNC(=O)C1CCN(S(=O)(=O)c2ccc(-c3noc(C4CC4)n3)cc2)CC1 (stereo not drawn) , same question.
679

One more compound: Cn1nccc1C(=O)N1CCCCC1c1nncn1Cc1ccccc1 (stereo not drawn)
665

Follow-up entry: CCN1C(=O)CCc2cc(NC(=O)c3n[nH]c4ccccc34)ccc21
761

Moving on to the next compound: COc1ccc2[nH]cc(CCNC(=O)Cn3c4ccccc4c4cnn(C)c(=O)c43)c2c1
767

Now this one: O=C(c1ccc(-c2ccsc2)nc1)N1CCCC1
716

Same question, COC(=O)c1ccccc1NC(=O)CCCn1c(=O)c2cccn2c2ccc(Br)cc21 this time
1120

Check COc1cccc(-c2noc(C3CC(=O)N(c4cc(C)cc(C)c4)C3)n2)c1OC (stereo not drawn) too.
1020

Now the same for COc1cc(Nc2ncc3c(n2)-c2ccc(Cl)cc2C(c2c(F)cccc2OC)=NC3)ccc1C(=O)O
919

// same read-out, input: CN(C)S(=O)(=O)c1ccc(C(=O)Nc2nc(-c3ccc4c(c3)OCO4)cs2)cc1
910

Same question for COc1ccc(C2C(=O)N(C3CCC(C)CC3)CC(=O)N2Cc2ccco2)cc1OC (stereo not drawn) please.
883

Try COc1ccc(C)cc1Nc1c(C(=O)N2CCCC2)cnc2nc(C)ccc12 next.
601

Try COc1ccc(NC(=O)Cn2nc(N3CCOCC3)c3ccccc3c2=O)c(OC)c1 next.
766

Queued: COc1ccc(-c2nc(-c3cn(-c4cccc(Cl)c4)nn3)no2)cc1
1100

Field entry: Cc1cc2c(cc1S(=O)(=O)N1CCCC1C(=O)NCc1ccccc1Cl)OCC(=O)N2 (stereo not drawn)
791

Also need COC(=O)N1CCN(c2ccc(-c3noc(C(F)(F)F)n3)cn2)CC1 , thanks.
904

Also check CC1=C(c2ccc(C)cc2)S(=O)(=O)N=C1N1CCC(NC(=O)Cc2ccsc2)CC1
867

Can you handle CCCc1nnc(C(=O)Nc2cccc(C(=O)NCCc3c[nH]c4ccc(Cl)cc34)c2)s1 next?
981

Now consider Cc1ccc(S(=O)(=O)N2C[C@@H](F)C[C@H]2C(=O)N2CCc3ccccc3C2)cc1 and answer again.
923

Moving on to the next compound: CCc1ccc(-n2nnc(C(=O)N3CCC(N4CCCCC4)CC3)c2-c2ccncc2)cc1
634

Ok, now Cc1nn(C(C)C)c(C)c1S(=O)(=O)N1CCN(C(=O)C2(c3ccccc3)CC2)CC1
890

Field entry: Cc1ccc(NC(=O)N2CCCC(Cn3cnc4cccnc43)C2)cc1C (stereo not drawn)
719

----------
PROTOCOL_TEXT: gradient 5% acetonitrile 3 min, to 50% in 2 min, to 85% in 15 min, held 3 min, 100 µL/min
EXPERIMENTAL_SETUP: column: Zorbax Extend-C18 2.1 x 50 mm; eluents: water / acetonitrile, 0.1% formic acid
READOUT: RP-LC retention time (s)
Give the value in s but do not write s after it.

Please report the recorded RP-LC retention time for CCCC(=O)Nc1nnc(SCc2nnc(-c3ccc4c(c3)OCO4)o2)s1 .
794

Next record, please: O=c1n(Cc2ccc(Cl)cc2)nc2c(S(=O)(=O)N3CCOCC3)cccn12
808

Same thing, different compound: O=C(Nc1ccccc1Cl)c1c(O)c2cccnc2n(-c2ccc(F)cc2)c1=O
1270

Then this compound: CC(C)Cn1c(=O)c2ccccc2n(Cc2nc(-c3ccccc3Cl)no2)c1=O
1170

Same thing, different compound: Cc1cc(C)cc(NC(=O)C2CCN(S(=O)(=O)c3ccc4c(c3)NC(=O)C(C)O4)CC2)c1 (stereo not given)
903

Try this compound next: CCOc1ccc(CN2CC(N(Cc3ccncc3)S(C)(=O)=O)C2)cc1
560

Then O=C(CCC[C@@H]1[C@H]2CCCN3CCC[C@@H](CN1C(=O)c1cc(F)cc(F)c1)[C@@H]23)N1CCOCC1 ?
605

Entry COc1cccc(C2Cn3nnc(-c4nc(-c5ccc(C)c(C)c5)no4)c3CO2)c1 (stereo not given) please
1270

Also need CCOc1ccc(OCC)c(NC(=O)C2CCN(C(=O)C3Sc4ccccc4NC3=O)CC2)c1 (stereo not given) , thanks.
882

Continue with Cc1cc(C)cc(NC(=O)NC2CCN(c3ccccc3)C2=O)c1 (stereo not given)
697

The reported numbers originate from the METLIN SMRT retention time set (Domingo-Almenara et al. 2019).
